Cited source: ChEMBL document CHEMBL1201862

# maps each entry to its GI50
# Test system: SR
# Experiment Notes: NCI tumour cell line growth inhibition, 48 h
The source made the active and inactive calls. Cut-off read from the data, not from the text of the source: active = GI50 up to about 1.1 µM and inactive = higher. Peptide text beside a SMILES is read from it. * marks the point of attachment. Cbz = O=C(OCc1ccccc1)*; NHNH2 = NN*
Value Kind: GI50

>>> observed_value("NC1=NS(=O)(=O)Nc2nc(-c3cccs3)[nH]c21")
"> 100 µM (inactive)"
>>> observed_value("N#Cc1[nH]c(=O)n(-c2ccccc2)c1N")
"> 10 µM (inactive)"
>>> observed_value("N=C(NNS(=O)(=O)c1ccccc1)Oc1ccc(Br)cc1Br")
"> 100 µM (inactive)"
>>> observed_value("CSc1nsc(-c2ccccc2)[s+]1.[O-][Cl+3]([O-])([O-])[O-]")
"> 100 µM (inactive)"
>>> observed_value("COc1ccc2c(c1)CCCN1CCc3cc(OC)c(OC)cc3C21 (stereo not drawn)")
"> 100 µM (inactive)"
>>> observed_value("COc1cc(C2c3cc4c(cc3[C@@H](Nc3cccc(O)c3)C3COC(=O)[C@H]23)OCO4)cc(OC)c1O (stereo partly drawn)")
"0.191 µM (active)"
>>> observed_value("CC(=O)c1cccc(NC(=O)C(=O)c2c(O)oc3ccccc3c2=O)c1")
"> 100 µM (inactive)"
>>> observed_value("COC(=O)CC(NC(=O)OCc1ccccc1)C(=O)NC(CC(=O)OC)C(=O)NC(CC(=O)OC)C(=O)NC(CC(=O)OC)C(=O)NC(CC(=O)OC)C(=O)NC(CC(=O)OC)C(=O)NN (stereo not drawn) (Cbz-D(OMe)D(OMe)D(OMe)D(OMe)D(OMe)D(OMe)-NHNH2; configuration not given here)")
"> 100 µM (inactive)"
